assay: Chemical stability of compound in MES buffer pH 5.5 at 100 mM assessed as compound recovery after 72 hrs by spectrometric analysis; assay type: physicochemical; details: read-out: Drug recovery
Square brackets hold non-standard residues; d marks the D form. Peptide text beside a SMILES is read from it. * marks the point of attachment. Propanoyl(3-cHex) = O=C(CCC1CCCCC1)*; Dap = NC[C@H](N)C(=O)O
Measure name: remaining at 72 h (%)
Express your answer in %, writing the number without its unit.

Q) Given the compound CC(C)C[C@H](NC(=O)CCC1CCCCC1)C(=O)N[C@@H](CC(C)C)C(=O)N[C@@H](CN)C(=O)N1CCC[C@H]1C(=O)N[C@@H](CCCNC(=N)N)C(=O)N[C@@H](CC(N)=O)C(N)=O ({Propanoyl(3-cHex)}-LL[Dap]PRN-NH2) , what is its reported remaining at 72 h?
A) 93

----------
biological target: Neuromedin-U receptor 2 (Mus musculus) (UniProt Q8BZ39); test: Agonist activity at mouse NMUR2 expressed in human HEK293 cells at 10 nM Fluo-4-AM dye based calcium mobilization assay relative to control; assay type: functional, cell-based
Sequence (Q8BZ39 whole entry): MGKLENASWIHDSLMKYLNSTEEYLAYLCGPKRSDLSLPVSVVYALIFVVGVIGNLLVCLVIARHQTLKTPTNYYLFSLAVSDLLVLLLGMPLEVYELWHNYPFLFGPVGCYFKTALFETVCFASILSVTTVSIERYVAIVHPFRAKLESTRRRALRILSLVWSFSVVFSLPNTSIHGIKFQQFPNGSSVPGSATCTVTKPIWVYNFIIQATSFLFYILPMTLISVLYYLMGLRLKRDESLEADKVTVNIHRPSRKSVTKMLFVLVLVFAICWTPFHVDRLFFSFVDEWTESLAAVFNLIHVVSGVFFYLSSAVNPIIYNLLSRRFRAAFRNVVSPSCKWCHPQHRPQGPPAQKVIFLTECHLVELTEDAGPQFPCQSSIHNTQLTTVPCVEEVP
Square brackets hold non-standard residues; d marks the D form. Peptide text beside a SMILES is read from it. * marks the point of attachment. Propanoyl(3-cHex) = O=C(CCC1CCCCC1)*; 2Pal = N[C@@H](Cc1ccccn1)C(=O)O; 3Pal = N[C@@H](Cc1cccnc1)C(=O)O; 4Pal = N[C@@H](Cc1ccncc1)C(=O)O; Dab = NCC[C@H](N)C(=O)O
The reader will find reported Activity values listed item by item below.

Q) Value lookup for Activity; key = CC(C)C[C@H](NC(=O)CCC1CCCCC1)C(=O)N[C@@H](CC(C)C)C(=O)N[C@@H](Cc1ccccn1)C(=O)N1CCC[C@H]1C(=O)N[C@@H](CCCNC(=N)N)C(=O)N[C@@H](CC(N)=O)C(N)=O ({Propanoyl(3-cHex)}-LL[2Pal]PRN-NH2)
A) 20 to 40%

Q) Same for CC(C)C[C@H](NC(=O)CCC1CCCCC1)C(=O)N[C@@H](CC(C)C)C(=O)N[C@@H](Cc1cccnc1)C(=O)N1CCC[C@H]1C(=O)N[C@@H](CCCNC(=N)N)C(=O)N[C@@H](CC(N)=O)C(N)=O ({Propanoyl(3-cHex)}-LL[3Pal]PRN-NH2)
A) 20 to 40%

Q) Continue with CC(C)C[C@H](NC(=O)CCC1CCCCC1)C(=O)N[C@@H](CC(C)C)C(=O)N[C@@H](Cc1ccncc1)C(=O)N1CCC[C@H]1C(=O)N[C@@H](CCCNC(=N)N)C(=O)N[C@@H](CC(N)=O)C(N)=O ({Propanoyl(3-cHex)}-LL[4Pal]PRN-NH2)
A) 20 to 40%

Q) Okay, and CC(C)C[C@H](NC(=O)CCC1CCCCC1)C(=O)N[C@@H](CC(C)C)C(=O)N[C@@H](CCN)C(=O)N1CCC[C@H]1C(=O)N[C@@H](CCCNC(=N)N)C(=O)N[C@@H](CC(N)=O)C(N)=O ({Propanoyl(3-cHex)}-LL[Dab]PRN-NH2) ?
A) 100%

----------
biological target: Neuromedin-U receptor 1 (Homo sapiens); assay: Agonist activity at human NMUR1 expressed in CHO cells at 10 nM by Fluo-4-AM dye based calcium mobilization assay; assay type: functional, cell-based
The source made the active and inactive calls. The calls are words filed in the database; no cut-off is given here. Square brackets hold non-standard residues; d marks the D form. Peptide text beside a SMILES is read from it. * marks the point of attachment. Propanoyl(3-cHex) = O=C(CCC1CCCCC1)*; hSer = N[C@@H](CCO)C(=O)O
Measure name: Activity

CC(C)C[C@H](NC(=O)CCC1CCCCC1)C(=O)N[C@@H](CC(C)C)C(=O)N[C@H](C(=O)N1CCC[C@H]1C(=O)N[C@@H](CCCNC(=N)N)C(=O)N[C@@H](CC(N)=O)C(N)=O)[C@H](C)O: inactive
CC(C)C[C@H](NC(=O)CCC1CCCCC1)C(=O)N[C@@H](CC(C)C)C(=O)N[C@@H](CCO)C(=O)N1CCC[C@H]1C(=O)N[C@@H](CCCNC(=N)N)C(=O)N[C@@H](CC(N)=O)C(N)=O ({Propanoyl(3-cHex)}-LL[hSer]PRN-NH2): inactive
CC(C)C[C@H](NC(=O)CCC1CCCCC1)C(=O)N[C@@H](CC(C)C)C(=O)N[C@@H](CS)C(=O)N1CCC[C@H]1C(=O)N[C@@H](CCCNC(=N)N)C(=O)N[C@@H](CC(N)=O)C(N)=O ({Propanoyl(3-cHex)}-LLCPRN-NH2): inactive
